Test: Fraction unbound in human serum after 3 to 7 hrs by equilibrium dialysis
Type: ADME, cell-free
metric_name: fraction unbound

Worked cases, fraction unbound given:
structure_string | observed_value
Cc1cc(Nc2nc(C#N)cn([C@H](C)C3CC3)c2=O)c(C)nc1OC(F)F | 0.016
COC[C@@H](C1CC1)n1cc(Cl)nc(Nc2cc(C)c(OC(F)F)nc2C)c1=O | 0.008
CC[C@H](C1CC1)n1cc(C#N)nc(Nc2cc(C)c(OC)nc2C)c1=O | 0.019
COC[C@H](C1CC1)n1cc(Cl)nc(Nc2cc(C)c(OC(F)F)nc2C)c1=O | 0.008
COC[C@H](C1CC1)n1cc(Cl)nc(Nc2cc(C)c(OC)nc2C)c1=O | 0.021

Reported fraction unbound for COC[C@H](C1CC1)n1cc(C#N)nc(Nc2cc(C)c(OC(F)F)nc2C)c1=O was 0.035

* * *

Assay: Metabolic stability in rat liver microsomes assessed as compound remaining at 3 uM after 10 mins by HPLC/UV/MS analysis
Type: ADME, Microsome
Settings: read-out: Stability
metric_name: remaining at 10 min, 3 µM
Please give the number followed by its unit.

structure_string | remaining at 10 min, 3 µM
COc1nc(C)c(Nc2nc(C#N)cn([C@H](C)C3CC3)c2=O)cc1C | 72%
COC[C@H](C1CC1)n1cc(Cl)nc(Nc2cc(C)c(OC)nc2C)c1=O | 24%
CC[C@H](C1CC1)n1cc(C#N)nc(Nc2cc(C)c(OC)nc2C)c1=O | 38%
COC[C@H](C1CC1)n1cc(C#N)nc(Nc2cc(C)c(OC(F)F)nc2C)c1=O | 70%
CC[C@H](C1CC1)n1cc(Cl)nc(Nc2cc(C)c(OC(F)F)nc2C)c1=O | 56%

Short answer for COC[C@@H](C1CC1)n1cc(Cl)nc(Nc2cc(C)c(OC(F)F)nc2C)c1=O : remaining at 10 min, 3 µM was 46%

Sure, the documented remaining at 10 min, 3 µM for COC[C@@H](C1CC1)n1cc(Cl)nc(Nc2cc(C)c(OC)nc2C)c1=O is 13%

Entry CC[C@H](C1CC1)n1cc(Cl)nc(Nc2cc(C)c(OC)nc2C)c1=O ; remaining at 10 min, 3 µM = 5%

Form: compound = COC[C@@H](C1CC1)n1cc(C#N)nc(Nc2cc(C)c(OC(F)F)nc2C)c1=O ; remaining at 10 min, 3 µM = 64%

remaining at 10 min, 3 µM in this record for COC[C@H](C1CC1)n1cc(Cl)nc(Nc2cc(C)c(OC(F)F)nc2C)c1=O : 69%

* * *

Target: Corticotropin-releasing factor receptor 1 (Rattus norvegicus, UniProt P35353)
Sequence (P35353 whole entry): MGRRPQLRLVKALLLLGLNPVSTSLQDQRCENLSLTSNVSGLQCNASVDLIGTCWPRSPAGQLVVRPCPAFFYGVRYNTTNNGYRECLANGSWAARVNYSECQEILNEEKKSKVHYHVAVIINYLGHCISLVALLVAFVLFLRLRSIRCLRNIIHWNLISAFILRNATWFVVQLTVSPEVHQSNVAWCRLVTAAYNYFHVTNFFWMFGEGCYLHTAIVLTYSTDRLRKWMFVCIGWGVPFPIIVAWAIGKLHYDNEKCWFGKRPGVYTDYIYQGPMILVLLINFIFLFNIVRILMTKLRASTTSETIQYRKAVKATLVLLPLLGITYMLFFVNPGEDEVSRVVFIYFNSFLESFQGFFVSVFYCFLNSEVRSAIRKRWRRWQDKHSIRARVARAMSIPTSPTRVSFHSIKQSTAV
# IC50 listing for each entry below
Write down the numeric answer in nM and omit the unit.

structure_string | target_of_assay | metric_name | observed_value
COC[C@@H](C1CC1)n1cc(C#N)nc(Nc2cc(C)c(OC(F)F)nc2C)c1=O | Corticotropin-releasing factor receptor 1 (Rattus norvegicus, UniProt P35353) | IC50 | 1.4
COc1nc(C)c(Nc2nc(Cl)cn([C@H](C)C3CC3)c2=O)cc1C | Corticotropin-releasing factor receptor 1 (Rattus norvegicus, UniProt P35353) | IC50 | 1.5
COC[C@@H](C1CC1)n1cc(Cl)nc(Nc2cc(C)c(OC(F)F)nc2C)c1=O | Corticotropin-releasing factor receptor 1 (Rattus norvegicus, UniProt P35353) | IC50 | 0.5
COC[C@@H](C)n1cc(Cl)nc(Nc2cc(C)c(OC(F)F)nc2C)c1=O | Corticotropin-releasing factor receptor 1 (Rattus norvegicus, UniProt P35353) | IC50 | 1.6
CC[C@H](C1CC1)n1cc(C#N)nc(Nc2cc(C)c(OC)nc2C)c1=O | Corticotropin-releasing factor receptor 1 (Rattus norvegicus, UniProt P35353) | IC50 | 1.7
COC[C@H](C1CC1)n1cc(C#N)nc(Nc2cc(C)c(OC(F)F)nc2C)c1=O | Corticotropin-releasing factor receptor 1 (Rattus norvegicus, UniProt P35353) | IC50 | 0.86
Cc1cc(Nc2nc(C#N)cn([C@H](C)C3CC3)c2=O)c(C)nc1OC(F)F | Corticotropin-releasing factor receptor 1 (Rattus norvegicus, UniProt P35353) | IC50 | 0.82
COC[C@@H](C1CC1)n1cc(Cl)nc(Nc2cc(C)c(OC)nc2C)c1=O | Corticotropin-releasing factor receptor 1 (Rattus norvegicus, UniProt P35353) | IC50 | 1.1

Attention now shifts to the item below.
Observed IC50 on Corticotropin-releasing factor receptor 1 (Rattus norvegicus, UniProt P35353), entry CC[C@H](C1CC1)n1cc(Cl)nc(Nc2cc(C)c(OC(F)F)nc2C)c1=O , equals 0.21

* * *

Assay: Volume of distribution at steady state in Beagle dog at 2 mg/kg, iv after 0.17 to 24 hrs by LC/MS/MS analysis
Format: ADME, organism-based, Canis lupus familiaris
Design: dose 2 mg/kg, route intravenous
Settings: in vivo, read-out: Vdss
metric_name: Vd (L/kg)
Provide the reading as a plain figure in L/kg.

The recorded Vd for entry COC[C@H](C1CC1)n1cc(C#N)nc(Nc2cc(C)c(OC(F)F)nc2C)c1=O equals 13

* * *

Assay: Dissociation constant, pKa by spectrophotometric titration method
Assay type: physicochemical
metric_name: pKa

Solved entries (count: 2):
structure_string | observed_value
CC[C@H](C1CC1)n1cc(C#N)nc(Nc2cc(C)c(OC)nc2C)c1=O | < 2
COC[C@H](C1CC1)n1cc(C#N)nc(Nc2cc(C)c(OC(F)F)nc2C)c1=O | < 2

With those in mind, consider the next compound.
pKa reading for COC[C@H](C1CC1)n1cc(Cl)nc(Nc2cc(C)c(OC)nc2C)c1=O : 3.1

* * *

Experiment: AUC in Beagle dog at 3 mg/kg, po dosed as aqueous suspension of Labrafil M 1944CS/DMAC/polysorbate 80, 85:10:5 (v/v) after 0.25 to 24 hrs by LC/MS/MS analysis
Type: ADME, organism-based, Canis lupus familiaris
Design: time upper 24 hr, time lower 0.25 hr, dose 3 mg/kg, route oral
Details: plasma
metric_name: AUC (µM·h)
Answer format: numeric, µM·h implied, no suffix.

Looking up COC[C@H](C1CC1)n1cc(C#N)nc(Nc2cc(C)c(OC(F)F)nc2C)c1=O , I found its AUC recorded as 17

* * *

Catalogue of molecules with associated remaining at 10 min, 3 µM
Experiment: Metabolic stability in human liver microsomes assessed as compound remaining at 3 uM after 10 mins by HPLC/UV/MS analysis
Type: ADME, Microsome
Conditions: read-out: Stability
Use % as the unit, but write only the number.

In the examples that follow, each entry is paired with its recorded remaining at 10 min, 3 µM.
structure_string | readout_units | remaining at 10 min, 3 µM
COc1nc(C)c(Nc2nc(Cl)cn([C@H](C)C3CC3)c2=O)cc1C | % | 77
COC[C@@H](C)n1cc(Cl)nc(Nc2cc(C)c(OC(F)F)nc2C)c1=O | % | 87
Cc1cc(Nc2nc(C#N)cn([C@H](C)C3CC3)c2=O)c(C)nc1OC(F)F | % | 100
Cc1cc(Nc2nc(Cl)cn([C@H](C)C3CC3)c2=O)c(C)nc1OC(F)F | % | 100

Continue with the next molecule.
Field remaining at 10 min, 3 µM (entry COC[C@H](C1CC1)n1cc(Cl)nc(Nc2cc(C)c(OC)nc2C)c1=O ) reads 48

* * *

Tested on: Rattus norvegicus
Assay: Total plasma concentration in Sprague-Dawley rat at 1 mg/kg, po after 1 to 3 hrs by LC/MS/MS analysis
Type: ADME, organism-based
Parameters: dose 1 mg/kg, route oral
Conditions: in vivo
metric_name: concentration (nM)
Respond with the bare value in nM.

Notebook: COC[C@H](C1CC1)n1cc(C#N)nc(Nc2cc(C)c(OC(F)F)nc2C)c1=O , concentration read as 45

* * *

Test system: Liver microsomes
Assay: Metabolic stability in NADPH-fortified rat liver microsomes assessed as pyrazinone oxidation metabolite formation at 10 uM after 30 mins by HPLC/UV/MS analysis
Type: ADME, Microsome
Details: 0.5 h
metric_name: Activity (%)
# unit: % | format: bare number

structure_string | Activity (%)
COC[C@H](C1CC1)n1cc(Cl)nc(Nc2cc(C)c(OC(F)F)nc2C)c1=O | 1

--- query ---
Lookup result for C[C@@H](C1CC1)n1cc(Cl)nc(Nc2c(Cl)cc(OC(F)F)cc2Cl)c1=O ; measured Activity: 20

* * *

Assay: Cmax in Sprague-Dawley rat at 10 mg/kg, po dosed as aqueous suspension of 1% polysorbate 80 in 0.5% methylcellulose after 2 to 4 hrs by LC/MS/MS analysis
Assay type: ADME, organism-based
Parameters: dose 10 mg/kg, route oral
Settings: in vivo
As shown below, each of these compounds has a reported Cmax value.
Unit nM implied. Number only.

structure_string | metric_name | observed_value
COC[C@H](C1CC1)n1cc(C#N)nc(Nc2cc(C)c(OC(F)F)nc2C)c1=O | Cmax | 860

Sure, the documented Cmax for CC[C@H](C1CC1)n1cc(C#N)nc(Nc2cc(C)c(OC)nc2C)c1=O is 50

compound Cc1cc(Nc2nc(C#N)cn([C@H](C)C3CC3)c2=O)c(C)nc1OC(F)F , Cmax observed: 560

Cmax for COC[C@H](C1CC1)n1cc(Cl)nc(Nc2cc(C)c(OC(F)F)nc2C)c1=O is 770

// sample COC[C@H](C1CC1)n1cc(Cl)nc(Nc2cc(C)c(OC)nc2C)c1=O , its Cmax was 180

Data provenance is ChEMBL document CHEMBL1154735.
